Biological target: RARγ (Homo sapiens, UniProt P13631)
Sequence (P13631 185-419 limits assumed): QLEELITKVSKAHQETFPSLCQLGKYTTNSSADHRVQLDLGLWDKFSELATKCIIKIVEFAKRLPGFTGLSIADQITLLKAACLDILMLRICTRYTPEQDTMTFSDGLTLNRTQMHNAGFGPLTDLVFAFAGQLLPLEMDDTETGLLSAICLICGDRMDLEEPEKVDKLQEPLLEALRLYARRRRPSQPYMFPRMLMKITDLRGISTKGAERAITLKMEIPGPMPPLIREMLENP
Test: PGA-RAR antagonist assay (glucocorticoid-retinoid chimeric receptors)
Type: cell-based
Parameters: RAR IC50 (nM) γ; other: in the presence of 1 nM all-trans retinoic acid; fused on or other part: Glucocorticoid receptor DNA-recognition part in place of RAR's own
Conditions: percentage of the maximum inhibition of the activity induced by 1 nM all-trans retinoic acid
Experimental: The results obtained in this assay are expressed in EC50 numbers, as they are also in the chimeric receptor transactivation assay. The other functional assay running in the presence of 1 nM all-trans retinoic acid, namely PGA-RAR antagonist assay (utilizing glucocorticoid-retinoid chimeric receptors), is a modified chimeric receptor transactivation assay which tests the compounds for their antagonist-like activity in the RARα, RARγ and RARγ receptor subtypes.
Reported RAR γ (% Inhibition) values are given for each entry in this list.
assay endpoint: RAR γ (% Inhibition) (%)

[
  {
    "compound": "Cc1ccc(C2=CCC(C)(C)c3cc(C(/C=C/c4ccc(C(=O)O)cc4)=N/O)ccc32)cc1",
    "unit abbreviation": "%",
    "val": 95
  },
  {
    "compound": "Cc1ccc(C2=CC(C)(C)c3cc(C(/C=C/c4ccc(C(=O)O)cc4)=N/O)ccc32)cc1 [Compound 16a]",
    "unit abbreviation": "%",
    "val": 78
  },
  {
    "compound": "Cc1ccc(C2=CCC(C)(C)c3cc(C(/C=C/c4ccc(C(=O)O)cc4)=NO)ccc32)cc1 (racemic)",
    "unit abbreviation": "%",
    "val": 108
  },
  {
    "compound": "Cc1ccc(C2=CC(C)(C)c3cc(C(/C=C/c4ccc(C(=O)O)cc4F)=N\\O)ccc32)cc1 [Compound 18b]",
    "unit abbreviation": "%",
    "val": 58
  },
  {
    "compound": "Cc1ccc(C2=CC(C)(C)c3cc(C(/C=C/c4ccc(C(=O)O)cc4F)=N/O)ccc32)cc1 [Compound 18a]",
    "unit abbreviation": "%",
    "val": 70
  },
  {
    "compound": "Cc1ccc(C2=CCC(C)(C)c3cc(C(/C=C/c4ccc(C(=O)O)cc4F)=N\\O)ccc32)cc1",
    "unit abbreviation": "%",
    "val": 78
  },
  {
    "compound": "Cc1ccc(C2=CCC(C)(C)c3cc(C(/C=C/c4ccc(C(=O)O)cc4F)=N/O)ccc32)cc1",
    "unit abbreviation": "%",
    "val": 90
  },
  {
    "compound": "Cc1ccc(C2=CC(C)(C)c3cc(C(/C=C/c4ccc(C(=O)O)cc4)=N\\O)ccc32)cc1 [Compound 16b]",
    "unit abbreviation": "%",
    "val": 54
  },
  {
    "compound": "Cc1ccc(C2=CCC(C)(C)c3cc(C(/C=C/c4ccc(C(=O)O)cc4)=N\\O)ccc32)cc1",
    "unit abbreviation": "%",
    "val": 88
  }
]
